experimentalTarget: T1, cynomolgus monkey BCMA (cynomolgus monkey, UniProt A0A2K5UD97 1-53)
T1 construct: Soluble analyte in SPR; construct not described; also called cyBCMA; Cyno BCMA
T1 sequence (A0A2K5UD97 entry or part of it): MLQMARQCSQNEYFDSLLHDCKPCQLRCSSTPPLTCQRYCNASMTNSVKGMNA
experimentDescription: SPR, IgG on chip, cyBCMA analyte
Binary call on koff: fulfilled from 0.004 s⁻¹ upward, not fulfilled beneath that.

INSERT INTO results (binder, cat) VALUES
  ('COMBO_Rd4_0.6nM_C11 (antibody, V domains shown, IgG) VH: EVQLLESGGGLVQPGGSLRLSCAASGFTFSSYPMSWVRQAPGKGLEWVSAALGSGGSTYYADSVKGRFTISRDNSKNTLYLQMNSLRAEDTAVYYCARYWPMSLWGQGTLVTVSS VL: EIVLTQSPGTLSLSPGERATLSCRASQSVSVRYLAWYQQKPGQAPRLLMYDASIRATGIPDRFSGSGSGTDFTLTISRLEPEDFAVYYCQQYGSWPITFGQGTKVEIK', 'fulfilled'),
  ('A02_Rd4_6nM_C22 (antibody, V domains shown, IgG) VH: EVQLLESGGGLVQPGGSLRLSCAASGFTFSSYAMNWVRQAPGKGLEWVSAVLDSGGSTYYADSVKGRFTISRDNSKNTLYLQMNSLRAEDTAVYYCARYWPMTPWGQGTLVTVSS VL: EIVLTQSPGTLSLSPGERATLSCRASQSVSSSYLAWYQQKPGQAPRLLMYDASIRATGIPDRFSGSGSGTDFTLTISRLEPEDFAVYYCQQYQVWPLTFGQGTKVEIK', 'not fulfilled'),
  ('C01_Rd4_6nM_C04 (antibody, V domains shown, IgG) VH: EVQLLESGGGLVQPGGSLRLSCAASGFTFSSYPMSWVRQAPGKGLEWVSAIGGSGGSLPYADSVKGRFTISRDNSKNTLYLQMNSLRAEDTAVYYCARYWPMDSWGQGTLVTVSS VL: EIVLTQSPGTLSLSPGERATLSCCSSQSVSSTYLAWYQQKPGQAPRLLIYDASSRAPGIPDRFSGSGSGTDFTLTISRLEPEDFAVYYCQQYSAFPLTFGQGTKVEIK', 'fulfilled'),
  ('C01_Rd4_0.6nM_C03 (antibody, V domains shown, IgG) VH: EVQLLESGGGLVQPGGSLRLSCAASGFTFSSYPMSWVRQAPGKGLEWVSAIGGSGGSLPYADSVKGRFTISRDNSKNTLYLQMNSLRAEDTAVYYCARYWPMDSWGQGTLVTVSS VL: EIVLTQSPGTLSLSPGERATLSCRASCDVSSTYLAWYQQKPGQAPRLLIYDASSRAPGIPDRFSGSGSGTDFTLTISRLEPEDFAVYYCQQYMRSPLTFGQGTKVEIK', 'fulfilled');

Moving on to another binder below.
Dear colleague, could you confirm whether COMBO_Rd4_0.6nM_C17 (antibody, V domains shown, IgG) VH: EVQLLESGGGLVQPGGSLRLSCAASGFTFSSYPMSWVRQAPGKGLEWVSAIGGSGGSLPYADSVKGRFTISRDNSKNTLYLQMNSLRAEDTAVYYCARYWPMDIWGQGTLVTVSS VL: EIVLTQSPGTLSLSPGERATLSCRASQGISSTYLAWYQQKPGQAPRLLMYDASIRATGIPDRFSGSGSGTDFTLTISRLEPEDFAVYYCQQYAYWPLTFGQGTKVEIK has koff at or above 0.004 s⁻¹? not fulfilled
